# IC50 per entry for BTK (Homo sapiens (Human), UniProt Q06187)
Endpoint Name: IC50

# Compound, Target Desc, Recorded Measurement
rows = [
    ("COC[C@]1(C)Nc2c(cnc3[nH]cc(C(=O)c4ccc(Oc5cccc(F)c5)cc4Cl)c23)NC1=O [Z157]", "BTK (Homo sapiens (Human), UniProt Q06187)", "15.2 nM"),
    ("COC[C@]1(C)Nc2c(cnc3[nH]cc(C(=O)c4ccccc4Br)c23)NC1=O [Z86]", "BTK (Homo sapiens (Human), UniProt Q06187)", "16 nM"),
    ("COCC1(C)Nc2c(cnc3[nH]cc(C(=O)c4ccc(Oc5cc(C6CC6)ccn5)cc4Cl)c23)NC1=O (stereo not shown) [Z73]", "BTK (Homo sapiens (Human), UniProt Q06187)", "22.8 nM"),
    ("O=C(c1ccc(Oc2ccccc2)cc1Cl)c1c[nH]c2ncc3c(c12)N[C@@]1(CC[C@H](O)C1)C(=O)N3 (single isomer, unassigned) [Z24-1]", "BTK (Homo sapiens (Human), UniProt Q06187)", "3.5 nM"),
    ("O=C(c1ccc(Oc2ccccc2)cc1Cl)c1c[nH]c2ncc3c(c12)N[C@]1(CC[C@H](O)C1)C(=O)N3 (single isomer, unassigned) [Z24-b]", "BTK (Homo sapiens (Human), UniProt Q06187)", "4.2 nM"),
    ("COC[C@@]1(C)Nc2c(cnc3[nH]cc(C(=O)c4ccc(Oc5ccccc5)cc4F)c23)NC1=O (single isomer, unassigned) [Z71-1]", "BTK (Homo sapiens (Human), UniProt Q06187)", "8.5 nM"),
    ("CN1CCC2(CC1)Nc1c(cnc3[nH]cc(C(=O)c4ccc(Oc5ccccc5)cc4Cl)c13)NC2=O [Z17]", "BTK (Homo sapiens (Human), UniProt Q06187)", "345 nM"),
]

###

# Target Desc: BTK (C481S) (Homo sapiens (Human), UniProt Q06187, C481S)
# Sequence (Q06187 whole entry C481S): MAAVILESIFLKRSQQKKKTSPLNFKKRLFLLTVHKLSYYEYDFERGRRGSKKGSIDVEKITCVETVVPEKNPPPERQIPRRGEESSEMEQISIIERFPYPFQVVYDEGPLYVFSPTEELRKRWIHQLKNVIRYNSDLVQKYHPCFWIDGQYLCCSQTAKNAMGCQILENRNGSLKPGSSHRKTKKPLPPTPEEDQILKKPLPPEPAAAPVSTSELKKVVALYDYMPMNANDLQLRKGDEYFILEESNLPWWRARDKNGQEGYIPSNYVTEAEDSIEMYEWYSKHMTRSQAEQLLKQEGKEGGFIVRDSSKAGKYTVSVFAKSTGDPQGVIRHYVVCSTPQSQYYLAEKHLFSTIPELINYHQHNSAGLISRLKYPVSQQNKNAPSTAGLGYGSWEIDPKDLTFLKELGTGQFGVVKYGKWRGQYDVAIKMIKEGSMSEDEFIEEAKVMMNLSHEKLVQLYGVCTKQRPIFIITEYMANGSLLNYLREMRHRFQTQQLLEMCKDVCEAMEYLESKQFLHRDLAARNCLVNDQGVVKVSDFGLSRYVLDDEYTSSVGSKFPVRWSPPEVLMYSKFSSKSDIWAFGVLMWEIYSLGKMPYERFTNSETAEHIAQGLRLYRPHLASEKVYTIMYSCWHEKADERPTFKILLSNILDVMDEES
# Test Summary: BTK C481S enzyme experiment (ADP-Glo kinase assay)
# Particulars: 10 nM BTK C481S, ATP 125 μM, Poly(Glu4, Tyr1), 90 minutes at 20° C.
# Method: A 3-fold gradient concentration stock solution of 1000× compound was prepared using DMSO and diluted 100-fold to 10× compound stock solution using reaction buffer (50 mM HEPES, pH 7.5, 0.0015% Briji-35, 2 mM DTT, 10 mM MgCl2), and the 10× compound stock solution was transferred to a 384-well plate. […] Finally, the kinase activity was detected according to the experimental steps provided by ADP-Glo™ kinase Assay Kit (Promega, #V9101), and finally the luminescence chemiluminescence value was read. […]
The molecules listed here are annotated with their IC50.
Endpoint Name: IC50 (nM)

# Molecule, Endpoint Name, Unit Text, Recorded Measurement
rows = [
    ("COCC[C@@]1(C)Nc2c(cnc3[nH]cc(C(=O)c4ccc(Oc5ccccc5)cc4Cl)c23)NC1=O", "IC50", "nM", 28.8),
    ("CN1CCC2(C1)Nc1c(cnc3[nH]cc(C(=O)c4ccc(Oc5ccccc5F)cc4Cl)c13)NC2=O (stereo not drawn)", "IC50", "nM", 14.1),
    ("COCC1(C)Nc2c(cnc3[nH]cc(C(=O)c4ccc(Oc5cc(C6CC6)ccn5)cc4Cl)c23)NC1=O (stereo not drawn) [Z73]", "IC50", "nM", 14.5),
    ("CN1C(=O)C(C)(CO)Nc2c1cnc1[nH]cc(C(=O)c3ccc(Oc4ccccc4)cc3Cl)c21 (stereo not drawn)", "IC50", "nM", 39.6),
    ("O=C(c1ccc(Oc2ccccc2)cc1Cl)c1c[nH]c2ncc3c(c12)N[C@@]1(CC[C@H](O)C1)C(=O)N3 (single isomer, unassigned) [Z24-1]", "IC50", "nM", 3.7),
    ("COC[C@]1(C)Nc2c(cnc3[nH]cc(C(=O)c4ccc(Oc5ccccn5)cc4Cl)c23)NC1=O", "IC50", "nM", 7.6),
    ("CC1(C)Nc2c(cnc3[nH]cc(C(=O)c4ccc(Oc5ccccc5)cc4Cl)c23)N(CCO)C1=O", "IC50", "nM", 71.7),
    ("CN1CC2(C1)Nc1c(cnc3[nH]cc(C(=O)c4ccc(Oc5ccccc5)cc4Cl)c13)NC2=O", "IC50", "nM", 21.3),
    ("[2H]C([2H])([2H])N1C(=O)[C@](C)(COC)Nc2c1cnc1[nH]cc(C(=O)c3ccc(Oc4ccccc4)cc3Cl)c21", "IC50", "nM", 20.1),
    ("C[C@@]1(COC(F)F)Nc2c(cnc3[nH]cc(C(=O)c4ccc(Oc5ccccc5)cc4Cl)c23)NC1=O", "IC50", "nM", 22.1),
    ("CN1CC[C@]2(C1)Nc1c(cnc3[nH]cc(C(=O)c4ccc(Oc5ccccc5)cc4Cl)c13)NC2=O (single isomer, unassigned)", "IC50", "nM", 9.2),
    ("COCC1(C)Nc2c(cnc3[nH]cc(C(=O)c4ccc(Oc5ccccc5)cc4F)c23)NC1=O (stereo not drawn)", "IC50", "nM", 21.3),
    ("O=C(c1ccc(Oc2ccccc2)cc1Cl)c1c[nH]c2ncc3c(c12)N[C@@]1(CCOC1)C(=O)N3 (single isomer, unassigned)", "IC50", "nM", 23.6),
    ("COC[C@]1(C)Nc2c(cnc3[nH]cc(C(=O)c4ccc(Oc5ccccc5)cc4Cl)c23)N(CCO)C1=O", "IC50", "nM", 23.2),
    ("N#C[C@H]1CC[C@@]2(C1)Nc1c(cnc3[nH]cc(C(=O)c4ccc(Oc5ccccc5)cc4Cl)c13)NC2=O (single isomer, unassigned) [Z26-3]", "IC50", "nM", 20.6),
]

###

# Target Desc: BTK (C481S) (Homo sapiens (Human), UniProt Q06187, C481S)
# Test Summary: BTK C481S enzyme experiment (ADP-Glo kinase assay)
# Particulars: 10 nM BTK C481S, ATP 125 μM, Poly(Glu4, Tyr1), 90 minutes at 20° C.
// boundary case: IC50 equal to 9 nM maps to not satisfied; strictly smaller maps to satisfied

# Compound, Discrete Label
data = [
    ("[2H]C([2H])([2H])OCC1(C)Nc2c(cnc3[nH]cc(C(=O)c4ccc(Oc5ccccc5)cc4Cl)c23)NC1=O (stereo not shown)", "not satisfied"),
    ("O=C(c1ccc(Oc2ccccc2)cc1Cl)c1c[nH]c2ncc3c(c12)N[C@@]1(CCCOC1)C(=O)N3 (single isomer, unassigned)", "satisfied"),
    ("C[C@@]1(CO)Nc2c(cnc3[nH]cc(C(=O)c4ccc(Oc5ccccc5)cc4Cl)c23)NC1=O (single isomer, unassigned)", "not satisfied"),
    ("O=C(c1ccc(Oc2ccccc2)cc1Cl)c1c[nH]c2ncc3c(c12)NC1(CCN(C(=O)C2CC2)C1)C(=O)N3 (stereo not shown)", "not satisfied"),
    ("[2H]C([2H])([2H])OC[C@]1(C)Nc2c(cnc3[nH]cc(C(=O)c4ccc(Oc5ccccc5F)cc4Cl)c23)NC1=O", "not satisfied"),
    ("CC1(C)Nc2c(cnc3[nH]cc(C(=O)c4ccccc4Cl)c23)NC1=O", "satisfied"),
    ("COC1CCC2(C1)Nc1c(cnc3[nH]cc(C(=O)c4ccc(Oc5ccccc5)cc4Cl)c13)NC2=O (single isomer, unassigned) [Z25-3]", "not satisfied"),
]

###

// IC50 collected for UniProt:Q06187

# Molecule, Target Desc, IC50 / nM
measured = [
    ("COC[C@]1(C)Nc2c(cnc3[nH]cc(C(=O)c4ccc(Oc5cc(Cl)cc(C)n5)cc4Cl)c23)NC1=O", "UniProt:Q06187", 14.9),
    ("CN1CCC2(C1)Nc1c(cnc3[nH]cc(C(=O)c4ccc(Oc5ccccc5)cc4Cl)c13)N(C)C2=O (stereo not drawn)", "UniProt:Q06187", 73.6),
    ("[2H]C([2H])([2H])OC[C@@]1(C)Nc2c(cnc3[nH]cc(C(=O)c4ccc(Oc5ccccc5)cc4Cl)c23)NC1=O (single isomer, unassigned)", "UniProt:Q06187", 12.7),
    ("CCOC[C@]1(C)Nc2c(cnc3[nH]cc(C(=O)c4ccc(Oc5ccccc5)cc4Cl)c23)NC1=O (single isomer, unassigned)", "UniProt:Q06187", 9.6),
    ("COC[C@]1(C)Nc2c(cnc3[nH]cc(C(=O)c4ccc(Oc5c(OC)ccc(F)c5F)cc4Cl)c23)NC1=O", "UniProt:Q06187", 6.4),
    ("COCC1(C)Nc2c(cnc3[nH]cc(C(=O)c4ccc(Oc5ccccc5)cc4Cl)c23)N(C)C1=O (single isomer, unassigned)", "UniProt:Q06187", 136),
    ("COC[C@]1(C)Nc2c(cnc3[nH]cc(C(=O)c4ccc(Oc5ccccc5OC)cc4Cl)c23)NC1=O", "UniProt:Q06187", 10.6),
    ("COC[C@]1(C)Nc2c(cnc3[nH]cc(C(=O)c4ccc(Oc5ccccn5)cc4Cl)c23)NC1=O", "UniProt:Q06187", 6.7),
    ("COC[C@]1(C)Nc2c(cnc3[nH]cc(C(=O)c4ccc(Oc5c(F)cccc5OC)cc4Cl)c23)NC1=O", "UniProt:Q06187", 4.5),
    ("O=C(c1ccc(Oc2ccccc2)cc1Cl)c1c[nH]c2ncc3c(c12)NC1(CCOC1)C(=O)N3 (stereo not drawn)", "UniProt:Q06187", 41.2),
    ("CC1(CO)Nc2c(cnc3[nH]cc(C(=O)c4ccc(Oc5ncccc5C(F)(F)F)cc4Cl)c23)NC1=O (stereo not drawn)", "UniProt:Q06187", 142),
    ("[2H]C([2H])([2H])OC[C@]1(C)Nc2c(cnc3[nH]cc(C(=O)c4ccc(Cn5cccn5)cc4Cl)c23)NC1=O", "UniProt:Q06187", 28.4),
    ("COC1CCC2(C1)Nc1c(cnc3[nH]cc(C(=O)c4ccc(Oc5cc(C)ccn5)cc4Cl)c13)NC2=O (stereo not drawn)", "UniProt:Q06187", 5.7),
    ("COC[C@]1(C)Nc2c(cnc3[nH]cc(C(=O)c4ccc(Oc5cccc(OC)c5)cc4Cl)c23)NC1=O", "UniProt:Q06187", 34),
    ("COC[C@]1(C)Nc2c(cnc3[nH]cc(C(=O)c4ccccc4Cl)c23)N=C1OC", "UniProt:Q06187", 18.8),
]

These entries and their values trace back to patent US20240360154A1.
